All values here come from ChEMBL document CHEMBL4052791.

# TARGET: Transcription initiation factor TFIID subunit 1 (Homo sapiens)
# EXPERIMENTAL PROTOCOL: Binding affinity to human DNA-tagged TAF1 bromodomain 2 (1521 to 1656 residues) expressed in bacterial expression system by BROMOscan assay
MEASUREMENT KIND: Kd (nM)
Number only, in nM; omit the unit.

If you can, please state the reported Kd value of C=CCn1cc(C(=O)N(C)C2CCN(c3cc(-c4cccc(OC)c4)ncn3)CC2)c2cc[nH]c2c1=O .
620

###

# TARGET: Transcription initiation factor TFIID subunit 1 (Homo sapiens, UniProt P21675)
# Sequence (P21675 whole entry, the tested form may be a part): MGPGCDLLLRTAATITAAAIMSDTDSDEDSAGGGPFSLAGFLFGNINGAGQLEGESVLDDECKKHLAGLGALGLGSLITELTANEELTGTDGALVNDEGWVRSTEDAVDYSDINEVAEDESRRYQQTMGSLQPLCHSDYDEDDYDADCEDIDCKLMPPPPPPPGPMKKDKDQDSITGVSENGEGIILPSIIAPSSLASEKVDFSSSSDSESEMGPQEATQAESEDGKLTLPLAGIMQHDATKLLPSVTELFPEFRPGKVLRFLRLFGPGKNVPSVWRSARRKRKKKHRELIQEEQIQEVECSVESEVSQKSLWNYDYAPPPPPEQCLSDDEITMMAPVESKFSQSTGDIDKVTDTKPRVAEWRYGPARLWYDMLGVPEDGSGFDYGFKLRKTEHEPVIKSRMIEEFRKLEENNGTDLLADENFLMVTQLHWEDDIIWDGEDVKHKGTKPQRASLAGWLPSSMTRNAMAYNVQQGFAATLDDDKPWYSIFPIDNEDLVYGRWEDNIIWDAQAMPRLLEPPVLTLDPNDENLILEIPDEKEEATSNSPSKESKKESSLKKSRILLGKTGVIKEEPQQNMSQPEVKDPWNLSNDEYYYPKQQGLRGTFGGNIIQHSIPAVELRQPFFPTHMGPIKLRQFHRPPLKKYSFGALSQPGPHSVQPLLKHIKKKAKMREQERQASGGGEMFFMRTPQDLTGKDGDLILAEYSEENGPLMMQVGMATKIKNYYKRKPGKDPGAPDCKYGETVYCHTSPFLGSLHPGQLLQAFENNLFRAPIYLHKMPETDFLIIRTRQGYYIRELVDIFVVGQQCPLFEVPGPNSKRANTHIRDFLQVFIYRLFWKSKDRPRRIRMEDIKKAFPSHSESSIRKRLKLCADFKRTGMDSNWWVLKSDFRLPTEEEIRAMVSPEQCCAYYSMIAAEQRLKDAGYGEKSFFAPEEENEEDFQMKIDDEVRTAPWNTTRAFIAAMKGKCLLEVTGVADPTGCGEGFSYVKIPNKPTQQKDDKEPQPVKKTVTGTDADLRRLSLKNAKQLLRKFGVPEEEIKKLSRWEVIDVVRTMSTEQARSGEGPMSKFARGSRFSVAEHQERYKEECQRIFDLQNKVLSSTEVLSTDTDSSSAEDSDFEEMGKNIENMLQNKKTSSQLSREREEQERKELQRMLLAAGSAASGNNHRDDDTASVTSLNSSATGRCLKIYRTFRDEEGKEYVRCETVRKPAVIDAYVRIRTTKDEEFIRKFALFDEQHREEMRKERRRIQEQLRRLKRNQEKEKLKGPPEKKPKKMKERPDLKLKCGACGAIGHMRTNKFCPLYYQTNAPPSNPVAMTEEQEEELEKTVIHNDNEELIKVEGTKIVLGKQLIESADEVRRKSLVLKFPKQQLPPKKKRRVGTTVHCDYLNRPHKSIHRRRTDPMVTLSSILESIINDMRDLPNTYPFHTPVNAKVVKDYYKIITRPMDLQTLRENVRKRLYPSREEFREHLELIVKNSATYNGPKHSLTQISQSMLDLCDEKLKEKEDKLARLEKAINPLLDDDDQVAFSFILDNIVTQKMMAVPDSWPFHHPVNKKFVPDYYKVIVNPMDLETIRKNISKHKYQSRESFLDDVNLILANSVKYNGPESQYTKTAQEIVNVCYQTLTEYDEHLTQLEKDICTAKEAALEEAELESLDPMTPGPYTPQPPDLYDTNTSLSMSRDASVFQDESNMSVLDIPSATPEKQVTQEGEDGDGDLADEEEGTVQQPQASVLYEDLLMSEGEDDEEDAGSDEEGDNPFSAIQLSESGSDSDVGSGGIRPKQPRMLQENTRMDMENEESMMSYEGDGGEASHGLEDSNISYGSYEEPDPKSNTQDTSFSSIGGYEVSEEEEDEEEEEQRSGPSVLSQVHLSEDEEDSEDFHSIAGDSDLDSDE
# EXPERIMENTAL PROTOCOL: Inhibition of recombinant human N-terminal His6-FLAG-tagged TAF1 bromodomain 2 (unknown origin) expressed in Rosetta2 (DE3) pLysS cells after 60 mins by TR-FRET assay
# Type: cell-based
Each entry below carries its recorded IC50.
Number only, in µM; omit the unit.

>>> measured("C=CCn1cc(C(=O)N(C)C2CCN(c3cc(C4CC4)ncn3)CC2)c2cc[nH]c2c1=O")
1.8
>>> measured("C=CCn1cc(C(=O)N(C)C2CCN(c3cc(-c4ccccc4F)ncn3)CC2)c2cc[nH]c2c1=O")
2.5

Now for a further compound.
If you can, please state the reported IC50 value of CN1CCC(N(C)C(=O)c2cn(C)c(=O)c3[nH]ccc23)CC1 .
6.1
